Data origin, for the record: ChEMBL document CHEMBL1146123

- Test system: A2780
- experiment: Mitotic arrest in A2780 cells
- Format: functional, cell-based
- test-settings: Homo sapiens
pEC50: −log10 of the molar value.
Let's look at some compounds and their measured pEC50.
assay-readout: pEC50

smiles_data=CC(C)(CN)C(=O)N1CC(c2cc(F)ccc2F)=C[C@H]1c1ccccc1 assayed_system=A2780 meas_value=7.96
smiles_data=CN(CCCN)C(=O)N1CC(c2cc(F)ccc2F)=C[C@H]1c1ccccc1 assayed_system=A2780 meas_value=7.36
smiles_data=O=C([C@@H](O)C1CC1)N1CC(c2cc(F)ccc2F)=C[C@H]1c1ccccc1 assayed_system=A2780 meas_value=7.70
smiles_data=N[C@H](C(=O)N1CC(c2cc(F)ccc2F)=C[C@H]1c1ccccc1)C1CC1 assayed_system=A2780 meas_value=8.07
smiles_data=CN(C(=O)N1CC(c2cc(F)ccc2F)=C[C@H]1c1ccccc1)C1CCNCC1 assayed_system=A2780 meas_value=8.17
smiles_data=CC(C)(C)[C@H](N)C(=O)N1CC(c2cc(F)ccc2F)=C[C@H]1c1ccccc1 assayed_system=A2780 meas_value=8.15
smiles_data=CC(=O)N1CCC(N(C)C(=O)N2CC(c3cc(F)ccc3F)=C[C@H]2c2ccccc2)CC1 assayed_system=A2780 meas_value=7.16
smiles_data=CC(C)(C)[C@H](NC(=O)OCCO)C(=O)N1CC(c2cc(F)ccc2F)=C[C@H]1c1ccccc1 assayed_system=A2780 meas_value=7.89
smiles_data=CC(C)[C@H](N)C(=O)N1CC(c2cc(F)ccc2F)=C[C@H]1c1ccccc1 assayed_system=A2780 meas_value=7.92

====

- experiment: Half life in rat at 1 mg/kg, iv
- Format: ADME, organism-based
- Design: dose 1 mg/kg, route intravenous
- test-settings: in vivo
assay-readout: half-life

smiles_data=N[C@H](C(=O)N1CC(c2cc(F)ccc2F)=C[C@H]1c1ccccc1)C1CC1 assay_readout=half-life meas_value="1.4 h"

====

- experiment: Volume distribution in dog at 0.4 mg/kg, iv
- Type: ADME, organism-based, Canis lupus familiaris
- Parameters: dose 0.4 mg/kg, route intravenous
- test-settings: in vivo, read-out: Vdss
assay-readout: Vd

smiles_data=N[C@H](C(=O)N1CC(c2cc(F)ccc2F)=C[C@H]1c1ccccc1)C1CC1 meas_value="3.8 L/kg"

====

- experiment: Aqueous solubility at pH 5
- Assay type: physicochemical
- test-settings: aqueous solution
# reported solubility; entries follow
assay-readout: solubility

smiles_data=N[C@H](C(=O)N1CC(c2cc(F)ccc2F)=C[C@H]1c1ccccc1)C1CC1 meas_value="> 10000 µg/mL"
smiles_data=CN(C(=O)N1CC(c2cc(F)ccc2F)=C[C@H]1c1ccccc1)C1CCNCC1 meas_value="> 10000 µg/mL"

====

- experiment: Half life in dog at 0.4 mg/kg, iv
- Assay type: ADME, organism-based, Canis lupus familiaris
- Design: dose 0.4 mg/kg, route intravenous
- test-settings: in vivo
assay-readout: half-life (h)

smiles_data=N[C@H](C(=O)N1CC(c2cc(F)ccc2F)=C[C@H]1c1ccccc1)C1CC1 meas_value=2.3
